The measurements presented in this section are drawn from ChEMBL document CHEMBL1944569.

# Assayed System: Sodium-dependent serotonin transporter (Homo sapiens)
# Sequence (P31645 whole entry): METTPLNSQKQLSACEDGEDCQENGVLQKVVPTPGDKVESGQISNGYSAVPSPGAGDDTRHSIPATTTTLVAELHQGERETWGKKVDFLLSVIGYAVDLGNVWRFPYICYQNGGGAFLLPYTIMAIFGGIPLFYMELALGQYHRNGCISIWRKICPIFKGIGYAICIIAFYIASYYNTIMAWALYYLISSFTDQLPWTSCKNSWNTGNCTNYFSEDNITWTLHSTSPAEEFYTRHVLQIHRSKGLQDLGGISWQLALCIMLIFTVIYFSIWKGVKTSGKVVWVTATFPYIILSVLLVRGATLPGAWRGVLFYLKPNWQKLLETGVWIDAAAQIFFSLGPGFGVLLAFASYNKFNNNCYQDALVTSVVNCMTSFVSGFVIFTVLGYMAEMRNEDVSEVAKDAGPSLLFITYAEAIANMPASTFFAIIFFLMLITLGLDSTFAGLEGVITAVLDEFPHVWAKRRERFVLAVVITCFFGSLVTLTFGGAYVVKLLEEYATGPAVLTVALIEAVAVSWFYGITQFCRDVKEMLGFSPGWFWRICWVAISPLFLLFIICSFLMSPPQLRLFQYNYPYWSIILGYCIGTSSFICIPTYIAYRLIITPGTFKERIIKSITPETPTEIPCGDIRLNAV
Readout: Ki (nM)
Field: numeric (nM). Do not append units.

Qu. Test system Sodium-dependent serotonin transporter (Homo sapiens); read-out Ki; what value for "COC(=O)[C@H]1[C@@H](c2ccc(C)cc2)C[C@@H]2CC[C@H]1N2C/C=C(\I)C(F)(F)F" ?
Ans. 251

---

# Assayed System: Sodium-dependent dopamine transporter (Homo sapiens)
# Measurement Description: Displacement of [3H]WIN35428 from human cloned DAT receptor expressed in human HEK293 cells
# Format: cell-based
# Assay Context: read-out: pKi (converted)
Recorded Ki by entry
Field: numeric (nM). Do not append units.

C[C@@H](CF)OC(=O)[C@H]1[C@@H](c2ccc(Cl)cc2)C[C@@H]2CC[C@H]1N2C	0.676

Qu. Could you share which Ki value was measured for "COC(=O)[C@H]1[C@@H](c2ccccc2)C[C@@H]2CC[C@H]1N2C/C=C/I" ?
Ans. 115

Qu. Could you share which Ki value was measured for COC(=O)[C@H]1[C@@H](c2ccc(I)cc2)C[C@@H]2CC[C@H]1N2CCCF [IOFLUPANE] ?
Ans. 28.2

Qu. Could you share which Ki value was measured for "COC(=O)[C@H]1[C@@H](c2ccc(F)cc2)C[C@@H]2CC[C@H]1N2C/C=C/CF" ?
Ans. 9.55

---

# Measurement Description: Lipophilicity, log D of the compound in octanol-water at pH 7.4 by reverse-phase HPLC analysis
Readout: logD
Reply with just the number.

ClCc1ccccc1	2.3
Oc1ccc2ccccc2c1	2.7
COC(=O)[C@H]1[C@@H](c2ccc(C)cc2)C[C@@H]2CC[C@H]1N2C/C=C/CF	4.1
O=[N+]([O-])c1cccc(O)c1	2

Qu. Could you share which logD value was measured for "c1ccc(-c2ccccc2)cc1" ?
Ans. 4.01

---

# Assayed System: Sodium-dependent dopamine transporter (Rattus norvegicus, UniProt P23977)
# Sequence (P23977 whole entry): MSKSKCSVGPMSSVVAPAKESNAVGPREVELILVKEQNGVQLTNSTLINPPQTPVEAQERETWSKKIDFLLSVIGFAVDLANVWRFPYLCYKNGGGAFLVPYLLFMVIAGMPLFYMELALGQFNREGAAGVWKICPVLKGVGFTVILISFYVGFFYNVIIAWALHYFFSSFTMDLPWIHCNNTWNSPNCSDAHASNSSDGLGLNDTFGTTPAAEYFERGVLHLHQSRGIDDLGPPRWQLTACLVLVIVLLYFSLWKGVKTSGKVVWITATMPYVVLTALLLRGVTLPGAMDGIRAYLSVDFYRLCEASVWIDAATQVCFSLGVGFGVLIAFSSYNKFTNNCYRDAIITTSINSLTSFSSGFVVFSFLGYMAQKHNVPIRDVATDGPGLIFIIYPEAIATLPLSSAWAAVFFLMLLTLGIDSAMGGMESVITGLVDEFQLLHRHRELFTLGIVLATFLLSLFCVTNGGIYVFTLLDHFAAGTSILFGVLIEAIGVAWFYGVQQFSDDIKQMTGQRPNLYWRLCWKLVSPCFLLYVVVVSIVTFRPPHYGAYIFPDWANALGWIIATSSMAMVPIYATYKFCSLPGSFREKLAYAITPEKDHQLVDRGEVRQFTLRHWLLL
# Measurement Description: Displacement of [3H]WIN35428 from rat cloned striatal DAT receptor
pIC50: −log10 of the molar value.
Parameter threshold = 8. Response is y when pIC50 meets or exceeds it, else n.

Qu. Please check the record "CN1[C@H]2CC[C@@H]1[C@@H](c1nc(-c3ccccc3)no1)[C@@H](c1ccc(Cl)cc1)C2" and state if its pIC50 is at or above 8.
Ans. n

Qu. Please check the record COC(=O)C1C2CCC(C2)CC1c1ccc(Cl)c(Cl)c1 (stereo unspecified) and state if its pIC50 is at or above 8.
Ans. y

Qu. Please check the record "Cc1ccc([C@H]2C[C@@H]3CC[C@H]([C@H]2C(=O)OC/C=C\I)N3C)cc1" and state if its pIC50 is at or above 8.
Ans. n

Qu. Please check the record "Cc1ccc([C@H]2C[C@@H]3CC[C@H]([C@H]2C(=O)OC/C=C/I)N3C)cc1" and state if its pIC50 is at or above 8.
Ans. n

---

# Assayed System: Sodium-dependent dopamine transporter (Homo sapiens, UniProt Q01959)
# Sequence (Q01959 whole entry): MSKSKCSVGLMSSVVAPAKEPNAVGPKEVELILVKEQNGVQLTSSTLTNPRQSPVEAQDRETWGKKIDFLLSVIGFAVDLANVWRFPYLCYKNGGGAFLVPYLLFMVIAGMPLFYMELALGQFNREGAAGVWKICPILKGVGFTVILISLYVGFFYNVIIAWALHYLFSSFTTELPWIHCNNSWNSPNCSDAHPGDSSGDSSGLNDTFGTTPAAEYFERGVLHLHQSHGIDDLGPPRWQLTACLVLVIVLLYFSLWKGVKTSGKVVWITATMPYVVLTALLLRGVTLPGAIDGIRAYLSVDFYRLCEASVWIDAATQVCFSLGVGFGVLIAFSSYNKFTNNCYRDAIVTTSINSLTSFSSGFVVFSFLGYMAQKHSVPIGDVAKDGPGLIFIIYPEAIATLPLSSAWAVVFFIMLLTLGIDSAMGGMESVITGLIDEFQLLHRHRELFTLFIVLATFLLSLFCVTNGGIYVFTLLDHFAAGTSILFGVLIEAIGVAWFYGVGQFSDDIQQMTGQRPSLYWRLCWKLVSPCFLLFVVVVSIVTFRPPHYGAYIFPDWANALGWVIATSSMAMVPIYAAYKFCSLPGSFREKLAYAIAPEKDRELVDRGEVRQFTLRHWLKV
# Measurement Description: Displacement of [3H]WIN35428 from human cloned DAT receptor expressed in human HEK293 cells
# Type: cell-based
# Assay Context: read-out: pKi (converted)
yes (1) if Ki is below 50 nM. no (0) if not; exact matches included in no (0).

Observe how each entry below is paired with its result.
COC(=O)[C@H]1[C@@H](c2ccc(Cl)c(Cl)c2)C[C@@H]2CC[C@H]1N2C/C=C/I	yes (1)
COC(=O)[C@H]1[C@@H](c2ccc(I)cc2)C[C@@H]2CC[C@H]1N2C	yes (1)
COC(=O)[C@H]1[C@@H](c2ccc(C)c(I)c2)C[C@@H]2CC[C@H]1N2C	yes (1)

Qu. Lab note: Ki threshold 50 nM. Does this molecule come in strictly under it? "CC(C)OC(=O)[C@@H]1[C@@H](OC(c2ccc(F)cc2)c2ccc(F)cc2)C[C@H]2CC[C@@H]1N2C"
Ans. yes (1)

Qu. Lab note: Ki threshold 50 nM. Does this molecule come in strictly under it? "CCc1ccc([C@H]2C[C@@H]3CC[C@@H](N3)[C@H]2C(=O)OC)cc1I"
Ans. no (0)

Qu. Lab note: Ki threshold 50 nM. Does this molecule come in strictly under it? "Cc1ccc([C@H]2C[C@@H]3CC[C@H]([C@H]2C(=O)OCCF)N3C/C=C/I)cc1"
Ans. yes (1)

Qu. Lab note: Ki threshold 50 nM. Does this molecule come in strictly under it? "C[C@H](CF)OC(=O)[C@H]1[C@@H](c2ccc(Cl)cc2)C[C@@H]2CC[C@H]1N2C"
Ans. yes (1)

Qu. Lab note: Ki threshold 50 nM. Does this molecule come in strictly under it? "COC(=O)[C@H]1[C@@H](c2ccc(C(C)C)c(I)c2)C[C@@H]2CC[C@H]1N2"
Ans. no (0)

Qu. Lab note: Ki threshold 50 nM. Does this molecule come in strictly under it? "CN1[C@H]2CC[C@@H]1[C@@H](C(=O)OCc1ccccc1)[C@@H](c1ccc(Cl)c(Cl)c1)C2"
Ans. yes (1)

Qu. Lab note: Ki threshold 50 nM. Does this molecule come in strictly under it? "COC(=O)[C@H]1[C@@H](c2ccc(C)cc2)C[C@@H]2CC[C@H]1N2C"
Ans. yes (1)

Qu. Lab note: Ki threshold 50 nM. Does this molecule come in strictly under it? "COC(=O)[C@H]1[C@@H](c2ccc(I)cc2)C[C@@H]2CC[C@H]1N2C/C=C/CF"
Ans. yes (1)
